Origin of values: patent US20250011363A1

# system.under.test: acetylcholine receptor
# test: SPR, AchR immobilised on CM5 chip, peptide 10 uM
readout.type: Binding affinity (RU)
Just the number please, in RU, no unit attached.

Below: 2 binders and their reported Binding affinity (RU).
{"binder": "KRFPWR [6mer-1-1058]", "quantitative.readout": 21}
{"binder": "RKDTVR [6mer-1-1022]", "quantitative.readout": 22}

So, KKMEAK [6mer-1-1020] ? Its Binding affinity (RU) was 38
